test system: KAI3 (IL-2 2.5 ng/mL); test: percent inhibition of viability; higher = more inhibition; conditions: 72 h; 0.1 nM
readout kind: percent inhibition of viability (%)
The response must be a number in % with no trailing unit.

Before answering, review these 3 worked examples.
percent inhibition of viability reading for COc1cc2c(Oc3ccc4[nH]c(C)cc4c3F)ncnc2cc1OCCCN1CCCC1 [Cediranib] (max concentration tested 1000 nM) : 4.2

Entry under test: CC(=O)O[C@H]1C(=O)[C@@]2(C)[C@H]([C@H](OC(=O)c3ccccc3)[C@]3(O)C[C@H](OC(=O)[C@H](O)[C@@H](NC(=O)c4ccccc4)c4ccccc4)C(C)=C1C3(C)C)[C@]1(OC(C)=O)CO[C@@H]1C[C@@H]2O [Paclitaxel] (max concentration tested 1000 nM) . Its percent inhibition of viability was -12.1

Looking up CO[C@H]1C[C@@H]2CC[C@@H](C)[C@@](O)(O2)C(=O)C(=O)N2CCCC[C@H]2C(=O)O[C@H]([C@H](C)C[C@@H]2CC[C@@H](OP(C)(C)=O)[C@H](OC)C2)CC(=O)[C@H](C)/C=C(\C)[C@@H](O)[C@@H](OC)C(=O)[C@H](C)C[C@H](C)/C=C/C=C/C=C/1C [Ridaforolimus] (max concentration tested 100 nM) , I found its percent inhibition of viability recorded as -7.54

New cases:
Lab note: CC(=O)O[C@@]12CO[C@@H]1C[C@H](O)[C@@]1(C)C(=O)[C@H](O)C3=C(C)[C@@H](OC(=O)[C@H](O)[C@@H](NC(=O)OC(C)(C)C)c4ccccc4)C[C@@](O)([C@@H](OC(=O)c4ccccc4)[C@H]21)C3(C)C [Docetaxel] (max concentration tested 1000 nM) gave percent inhibition of viability of -10.5

In plain terms, CCn1cc(-c2ccnc3[nH]c(-c4cccc(CN(C)C)c4)cc23)c(-c2ccc(NC(=O)N(C)C)cc2)n1 (max concentration tested 1000 nM) has a documented percent inhibition of viability of 0.71

get_value(item= C[C@@H](Nc1cc(F)cc(F)c1)c1cc(C(=O)N(C)C)cc2c(=O)cc(N3CCOCC3)oc12 [AZD-8186] (max concentration tested 1000 nM) , readout=percent inhibition of viability) returns -2.99

Entry CC(C)c1cc(-c2n[nH]c(=O)n2-c2ccc3c(ccn3C)c2)c(O)cc1O [Ganetespib] (max concentration tested 1000 nM) ; percent inhibition of viability = -0.77

Given item Oc1ccc2c(c1)CC[C@H](c1ccccc1)[C@@H]2c1ccc(OCCN2CCCC2)cc1 [Lasofoxifene] (max concentration tested 1000 nM) , the value recorded as its percent inhibition of viability is -1.79

Per the record, CC[C@@H]1C(=O)N(C)c2cnc(Nc3ccc(C(=O)NC4CCN(C)CC4)cc3OC)nc2N1C1CCCC1 [BI 2536] (max concentration tested 1000 nM) has percent inhibition of viability of -2.84

----------
Listing of recorded percent inhibition of viability by entry.
system: YT (IL-2 2.5 ng/mL); test: percent inhibition of viability; higher = more inhibition; settings: 72 h; 10 nM
Express your answer in %, writing the number without its unit.

Lab book: percent inhibition of viability of C=C1C[C@@H]2[C@H](CC[C@]3(C)C(=O)CC[C@@H]23)[C@@]2(C)C=CC(=O)C=C12 [Exemestane] (max concentration tested 10000 nM) noted as 11.7

compound COCC(=O)NC/C=C/c1ccc2ncnc(Nc3ccc(Oc4ccc(C)nc4)c(C)c3)c2c1 (max concentration tested 10000 nM) , percent inhibition of viability observed: -0.32

Below: the item to evaluate.
Value of percent inhibition of viability reported for the compound C[C@@H](Oc1cc(-n2cnc3ccc(CN4CCN(C)CC4)cc32)sc1C(N)=O)c1ccccc1C(F)(F)F (max concentration tested 10000 nM) is 0.54

----------
As shown below, each of these molecules has a reported percent inhibition of viability value.
test system: KAI3 (IL-2 2.5 ng/mL); test: percent inhibition of viability; higher = more inhibition; settings: 72 h; 10 nM
A number alone suffices; assume %.

Hey, KAI3 (IL-2 2.5 ng/mL) data for O=C1CN2Cc3c(ccc(Cl)c3Cl)N=C2N1 [Anagrelide] (max concentration tested 10000 nM) : percent inhibition of viability came out at -16.8

Readout percent inhibition of viability for CCCS(=O)(=O)Nc1ccc(F)c(C(=O)c2c[nH]c3ncc(-c4ccc(Cl)cc4)cc23)c1F [Vemurafenib] (max concentration tested 10000 nM) , test system KAI3 (IL-2 2.5 ng/mL), was -4.57

----------
test system: DERL-7 (IL-2 2.5 ng/mL); assay: percent inhibition of viability; higher = more inhibition; conditions: 72 h; 100 nM
readout kind: percent inhibition of viability (%)
Express the result in % but write the number alone.

GET /value?item= CC(C)(C)c1cnc(CSc2cnc(NC(=O)C3CCNCC3)s2)o1 [SNS-032] (max concentration tested 10000 nM) &field=percent inhibition of viability returns 77.5

Record CCCS(=O)(=O)Nc1ccc(F)c(C(=O)c2c[nH]c3ncc(-c4ccc(Cl)cc4)cc23)c1F [Vemurafenib] (max concentration tested 10000 nM) , field percent inhibition of viability: 4.34

Now for another entry.
# percent inhibition of viability of Nc1nc(N)c2nc(-c3cccc(O)c3)c(-c3cccc(O)c3)nc2n1 [TG100-115] (max concentration tested 10000 nM) = 5.03

----------
system: normal primary NK cells, pool 1 (3 donors) (IL-2 2.5 ng/mL); experiment: percent inhibition of viability; higher = more inhibition; conditions: 72 h; 1 nM
Measured percent inhibition of viability by item
Note: unit % is implicit; provide only the numeric part.

Here is how some compounds turned out for percent inhibition of viability.
Looking up C[C@]1(c2nc3c(C(N)=O)cccc3[nH]2)CCCN1 [Veliparib] (max concentration tested 10000 nM) , I see its percent inhibition of viability listed as -7.43

Looking up CS(=O)(=O)c1ccc(C(=O)Nc2ccc(Cl)c(-c3ccccn3)c2)c(Cl)c1 [Vismodegib] (max concentration tested 10000 nM) , I see its percent inhibition of viability listed as -0.96

Continuing:
response.value for CN1CCC(CNc2ccc3ncc(-c4cccc(OC(F)(F)F)c4)n3n2)CC1 [SGI-1776] (max concentration tested 10000 nM) (field: percent inhibition of viability) = -1.59

----------
Below, each entry is listed alongside its reported percent inhibition of viability.
test system: YT (IL-2 2.5 ng/mL); assay: percent inhibition of viability; higher = more inhibition; conditions: 72 h; 10000 nM
Reply numerically in %, unit not repeated.

Some compounds with known percent inhibition of viability results, for comparison:
// field: percent inhibition of viability; key: C=CCNC1=C2C[C@@H](C)C[C@H](OC)[C@H](O)[C@@H](C)/C=C(\C)[C@H](OC(N)=O)[C@@H](OC)/C=C\C=C(/C)C(=O)NC(=CC1=O)C2=O [Tanespimycin] (max concentration tested 10000 nM) ; value = 101

// sample COCC[n+]1c2c(n(Cc3cnccn3)c1C)C(=O)c1ccccc1C2=O [YM155] (max concentration tested 10000 nM) , its percent inhibition of viability was 102

Further cases:
# percent inhibition of viability (compound: Nc1nc(F)nc2c1ncn2[C@@H]1O[C@H](CO)[C@@H](O)[C@@H]1O [Fludarabine] (max concentration tested 10000 nM) ) is 4.14

----------
tested on: normal NK cells expanded with K562-aAPC; experiment: percent inhibition of viability; higher = more inhibition; settings: 72 h; IL-2 2.5 ng/mL; 10000 nM
readout kind: percent inhibition of viability (%)
Express the result in % but write the number alone.

Example entries begin here.
Simply: CCn1c(=O)c(-c2cc[nH]n2)cc2c(C)nc(N)nc21 [Voxtalisib] (max concentration tested 10000 nM) , normal NK cells expanded with K562-aAPC, percent inhibition of viability = 60.2

percent inhibition of viability for normal NK cells expanded with K562-aAPC with input CCc1cncnc1N1CCN(Cc2nc3ccc(C(F)(F)F)cc3[nH]2)CC1 (max concentration tested 10000 nM) equals 5

percent inhibition of viability value, target or system normal NK cells expanded with K562-aAPC, for Nc1ccn([C@@H]2O[C@H](CO)[C@@H](O)[C@@H]2O)c(=O)n1 [Cytarabine] (max concentration tested 10000 nM) : 98.9

Record C[C@@H](Oc1cc(-n2cnc3ccc(CN4CCN(C)CC4)cc32)sc1C(N)=O)c1ccccc1C(F)(F)F (max concentration tested 10000 nM) / normal NK cells expanded with K562-aAPC, percent inhibition of viability recorded as 101

The reported normal NK cells expanded with K562-aAPC percent inhibition of viability of O=C(Nc1cccc(C(F)(F)F)c1)Nc1cc(S(=O)(=O)NC2CC2)ccc1-c1ccsc1 [AGI-6780] (max concentration tested 10000 nM) is 6.74

New cases:
Measured on normal NK cells expanded with K562-aAPC, Oc1ncnc2[nH]ncc12 [Allopurinol] (max concentration tested 10000 nM) has a documented percent inhibition of viability of 10.3

Bench note, normal NK cells expanded with K562-aAPC: Cc1ccc(-c2cc(C(F)(F)F)nn2-c2ccc(S(N)(=O)=O)cc2)cc1 [Celecoxib] (max concentration tested 10000 nM) , percent inhibition of viability reads 11.9
